# method: Pharmacokinetic analysis of RA in an SH-SY5Y xenograft model (retinoid concentrations in plasma, liver, tumour by LC/MS)
# Type: in vivo, CD-1 nude mice
# testSettings: female, CD-1 nu/nu (athymic nude), mouse, plasma, po, 100 mg kg^−1, after ATRA 100 mg kg^−1 oral; plasma; 6 h; label = retinoid measured; read-out: Plasma concentration, 6 h
quantityKind: concentration at 6 h (µM)
Report the value in µM with no unit label.

Query string: Would you kindly share the measured concentration at 6 h for CC1=C(/C=C/C(C)=C/C=C/C(C)=C/C(=O)O)C(C)(C)CCC1 [ATRA, all-trans-retinoic acid] ?
Result string: 12.8

Query string: Would you kindly share the measured concentration at 6 h for CC1=C(/C=C/C(C)=C/C=C/C(C)=C\C(=O)O)C(C)(C)CCC1 [13cisRA, 13-cis-retinoic acid] ?
Result string: 1.53

###

# method: Pharmacokinetic analysis of RA in an SH-SY5Y xenograft model (retinoid concentrations in plasma, liver, tumour by LC/MS)
# Type: in vivo, CD-1 nude mice
# testSettings: female, CD-1 nu/nu (athymic nude), mouse, tumour (SH-SY5Y xenograft), po, 100 mg kg^−1, after 13cisRA 100 mg kg^−1 oral; SH-SY5Y tumour; 0.5 h; label = retinoid measured; read-out: Tumour concentration, 0.5 h
Exercise: for every item that follows, state its recorded concentration at 0.5 h.
Report the value in ng/g with no unit label.

Query string: Would you kindly share the measured concentration at 0.5 h for CC1=C(/C=C/C(C)=C/C=C/C(C)=C\C(=O)O)C(C)(C)CCC1 [13cisRA, 13-cis-retinoic acid] ?
Result string: 2000

Query string: Would you kindly share the measured concentration at 0.5 h for CC1=C(/C=C/C(C)=C/C=C/C(C)=C/C(=O)O)C(C)(C)CCC1 [ATRA, all-trans-retinoic acid] ?
Result string: 150

###

Exercise: for every item that follows, state its recorded % Total retinoids, tumour, 2 h.
# method: Pharmacokinetic analysis of RA in an SH-SY5Y xenograft model (retinoid concentrations in plasma, liver, tumour by LC/MS)
# Format: in vivo, CD-1 nude mice
# testSettings: after 13cisRA 100 mg kg^−1 oral; SH-SY5Y tumour; 2 h; label = retinoid measured
Report the value in % with no unit label.

Query string: Would you kindly share the measured % Total retinoids, tumour, 2 h for CC1=C(/C=C/C(C)=C/C=C/C(C)=C\C(=O)O)C(C)(C)CCC1=O [13cis-4-oxoRA, 13-cis-4-oxo-RA] ?
Result string: 2

Query string: Would you kindly share the measured % Total retinoids, tumour, 2 h for CC1=C(/C=C/C(C)=C/C=C/C(C)=C\C(=O)O)C(C)(C)CCC1 [13cisRA, 13-cis-retinoic acid] ?
Result string: 81

Query string: Would you kindly share the measured % Total retinoids, tumour, 2 h for CC1=C(/C=C/C(C)=C/C=C/C(C)=C/C(=O)O)C(C)(C)CCC1=O [AT-4-oxoRA, all-trans-4-oxo-RA] ?
Result string: 3

Query string: Would you kindly share the measured % Total retinoids, tumour, 2 h for CC1=C(/C=C/C(C)=C/C=C/C(C)=C/C(=O)O)C(C)(C)CCC1 [ATRA, all-trans-retinoic acid] ?
Result string: 14

###

Exercise: for every item that follows, state its recorded % Total retinoids, tumour, 6 h.
# method: Pharmacokinetic analysis of RA in an SH-SY5Y xenograft model (retinoid concentrations in plasma, liver, tumour by LC/MS)
# Type: in vivo, CD-1 nude mice
# testSettings: after 13cisRA 100 mg kg^−1 oral; SH-SY5Y tumour; 6 h; label = retinoid measured
Report the value in % with no unit label.

Query string: Would you kindly share the measured % Total retinoids, tumour, 6 h for CC1=C(/C=C/C(C)=C/C=C/C(C)=C/C(=O)O)C(C)(C)CCC1 [ATRA, all-trans-retinoic acid] ?
Result string: 16

Query string: Would you kindly share the measured % Total retinoids, tumour, 6 h for CC1=C(/C=C/C(C)=C/C=C/C(C)=C\C(=O)O)C(C)(C)CCC1=O [13cis-4-oxoRA, 13-cis-4-oxo-RA] ?
Result string: 19

Query string: Would you kindly share the measured % Total retinoids, tumour, 6 h for CC1=C(/C=C/C(C)=C/C=C/C(C)=C\C(=O)O)C(C)(C)CCC1 [13cisRA, 13-cis-retinoic acid] ?
Result string: 49

Query string: Would you kindly share the measured % Total retinoids, tumour, 6 h for CC1=C(/C=C/C(C)=C/C=C/C(C)=C/C(=O)O)C(C)(C)CCC1=O [AT-4-oxoRA, all-trans-4-oxo-RA] ?
Result string: 16
